Quick record of IC50 values for human HSP90 alpha protein (N-terminal, amino acids 2 to 236) (Homo sapiens (Human)).
Metric Name: IC50 (nM)

Answered examples (3):
INSERT INTO measurements (compound, unit_name, value_measured) VALUES
  ('CCNc1cc(-c2cccc3c(-n4cnc(-c5cnn(C)c5)c4)ccnc23)ccc1C(N)=O', 'nM', 830),
  ('Cc1ccc(-c2cn(-c3cccc4c(-c5ccc(C(N)=O)c(N)c5)cc(C(C)C)nc34)cn2)cn1', 'nM', 160),
  ('CC(C)OCCNc1cc(-c2cc(C(F)(F)F)nc3c(-n4cnc(-c5ccccc5)c4)cccc23)ccc1C(N)=O', 'nM', 4360);

P = NC(=O)c1ccc(-c2nc(C3CC3)nc3c(-c4cnc5ccccc5c4)cccc23)cc1NC1CCC(O)CC1 (stereo not shown)
Q = Cn1cc(-c2cn(-c3cccc4c(-c5ccc(C(N)=O)c(NC(C)(C)C)c5)nc(C(F)(F)F)nc34)cn2)cn1
Q) Between these two entries, P and Q , state which has the higher IC50. Bench note: the answer is the label of the chosen record.
A) Q

A = NC(=O)c1ccc(-c2nccc3c(-c4cncc(NC(=O)CO)c4)cccc23)cc1NC1CCC(O)CC1 (stereo not shown)
B = Cc1cc(-c2ccc(C(N)=O)c(NC(C)(C)C)c2)c2cccc(-n3cnc(-c4cnn(C)c4)c3)c2n1
Q) Could you check which of A and B has a smaller value for IC50? Bench note: the answer is the label of the chosen record.
A) B
(B: 160 nM, A: 230 nM)

The measured values listed here are drawn from patent US8912181B2.
